molecular target: Mitogen-activated protein kinase 9 (Homo sapiens); test: Inhibition of recombinant JNK2 after 60 mins by TR-FRET assay
Sequence (P45984 whole entry): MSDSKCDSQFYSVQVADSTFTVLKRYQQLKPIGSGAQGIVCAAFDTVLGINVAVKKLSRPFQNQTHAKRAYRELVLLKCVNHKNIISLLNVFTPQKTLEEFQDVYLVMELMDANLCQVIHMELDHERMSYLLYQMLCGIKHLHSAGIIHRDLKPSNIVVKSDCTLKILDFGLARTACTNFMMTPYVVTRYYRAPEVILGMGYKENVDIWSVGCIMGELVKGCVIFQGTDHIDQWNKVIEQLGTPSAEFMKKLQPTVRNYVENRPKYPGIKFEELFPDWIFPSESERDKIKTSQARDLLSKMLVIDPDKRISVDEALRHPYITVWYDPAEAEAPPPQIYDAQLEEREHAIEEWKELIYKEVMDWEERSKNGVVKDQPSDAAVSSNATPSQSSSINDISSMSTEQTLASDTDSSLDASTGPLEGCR
readout-type: IC50

COC(=O)c1sccc1NC(=O)Cc1cccc2cnccc12
3.1 µM

Quick one: give measured IC50 for O=C(Cc1cccc2ccccc12)Nc1ccsc1-c1ncn[nH]1
3 µM

Give a short answer stating reported IC50 for CC(=O)c1sccc1NC(=O)Cc1ccccc1 .
> 50 µM

Provide IC50 value for the following compound: COCCNC(=O)c1sccc1NC(=O)Cc1ccccc1
> 50 µM

Dear colleague, please send me the reported IC50 for COC(=O)c1n[nH]cc1NC(=O)Cc1cccc2ccccc12 when you can.
26.7 µM

Given COc1ccc(CC(=O)Nc2ccsc2-c2c[nH]c(C)n2)cc1 , respond with its IC50.
> 50 µM

Consider the compound COC(=O)c1nnsc1NC(=O)Cc1cccc2ccccc12 and give its recorded IC50.
> 50 µM

Quote IC50 reported for COC(=O)c1scnc1NC(=O)Cc1cccc2ccccc12 please.
> 50 µM

State, in one line, measured IC50 of Cc1ccncc1NC(=O)Cc1cccc2ccccc12
> 50 µM

Note down IC50 recorded for COC(=O)c1cscc1NC(=O)Cc1cccc2ccccc12
9.9 µM

Indicate the recorded IC50 value for this compound: Cc1nccnc1NC(=O)Cc1cccc2ccccc12
> 50 µM

Consider the compound NC(=O)c1sccc1NC(=O)Cc1ccccc1 and give its recorded IC50.
> 50 µM

====

biological target: Mitogen-activated protein kinase 14 (Homo sapiens, UniProt Q16539); assay: Inhibition of recombinant p38alpha after 60 mins by TR-FRET assay
Sequence (Q16539 whole entry): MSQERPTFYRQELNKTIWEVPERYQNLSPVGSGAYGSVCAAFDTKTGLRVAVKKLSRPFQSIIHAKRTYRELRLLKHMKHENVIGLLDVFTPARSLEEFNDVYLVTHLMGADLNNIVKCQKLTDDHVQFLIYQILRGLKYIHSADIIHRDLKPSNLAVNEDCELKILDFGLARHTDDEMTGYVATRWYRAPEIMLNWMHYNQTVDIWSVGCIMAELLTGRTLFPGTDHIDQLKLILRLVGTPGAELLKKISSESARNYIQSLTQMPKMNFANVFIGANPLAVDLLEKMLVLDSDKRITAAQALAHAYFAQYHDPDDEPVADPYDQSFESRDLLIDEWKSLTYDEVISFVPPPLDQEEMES
Parameter IC50: see the listing below.

Illustrative cases are given below, each with its answer.
COc1ccc(CC(=O)Nc2ccsc2-c2nc(C(F)(F)F)n[nH]2)cc1
> 50 µM
O=C(Cc1cccc2cnccc12)Nc1ccsc1-c1cscn1
> 50 µM
COc1ccc(CC(=O)Nc2ccsc2-c2cnccn2)cc1
> 50 µM
O=C(Cc1cccc2cnccc12)Nc1scnc1-c1cnccn1
> 50 µM
COC(=O)c1n[nH]cc1NC(=O)Cc1cccc2ccccc12
> 50 µM
COc1ccc(CC(=O)Nc2ccsc2-c2nc(N)n[nH]2)cc1
> 50 µM
O=C(Cc1cccc2cnccc12)Nc1scnc1-c1cscn1
> 50 µM
COc1ccc(CC(=O)Nc2ccsc2-c2c[nH]c(C)n2)cc1
> 50 µM

Tell me IC50 reported for O=C(Cc1cccc2cnccc12)Nc1scnc1-c1ncn[nH]1
> 50 µM

Give IC50 for COC(=O)c1sccc1NC(=O)Cc1cccc2cnccc12
> 50 µM

Tell us which IC50 value is on record for COc1ccc(CC(=O)Nc2ccsc2-c2cn(C)cn2)cc1
> 50 µM

Provide measured IC50 value, entry: COC(=O)c1ncsc1NC(=O)Cc1cccc2cnccc12
> 50 µM

====

target: Mitogen-activated protein kinase 9 (Homo sapiens); experiment: Inhibition of recombinant JNK2 after 60 mins by TR-FRET assay
pIC50: −log10 of the molar value.
Listing of entries alongside the reported pIC50.

Indicate the recorded pIC50 value for this compound: CCOC(=O)c1c(C)nsc1NC(=O)Cc1cccc2ccccc12
< 4.30

====

test: Metabolic stability in human liver microsomes assessed as compound remaining after 30 mins; assay type: ADME, Microsome; conditions: read-out: Stability
readout-type: remaining at 0.5 h (%)

COc1ccc(CC(=O)Nc2ccsc2-c2ncco2)cc1
14
O=C(Cc1cccc2ccccc12)Nc1ccsc1-c1nnco1
7
COC(=O)c1ncsc1NC(=O)Cc1cccc2cnccc12
41
COc1ccc(CC(=O)Nc2ccsc2-c2c[nH]c(C)n2)cc1
17
COc1ccc(CC(=O)Nc2ccsc2-n2nccn2)cc1
0

(a) COc1ccc(CC(=O)Nc2ccsc2-c2nc(C(F)(F)F)n[nH]2)cc1
(b) Cc1nnc(-c2sccc2NC(=O)Cc2cccc3ccccc23)o1
(c) Cc1n[nH]c(-c2sccc2NC(=O)Cc2cccc3ccccc23)n1
(d) O=C(Cc1cccc2cnccc12)Nc1scnc1-c1ncn[nH]1
(e) Cn1ccc(-c2sccc2NC(=O)Cc2cccc3ccccc23)n1
Hey, can you sort those compounds up there by remaining at 0.5 h, smallest first? Submit the labels in the order that the ranking request calls for.
e, c, b, d, a
(e: 0%, c: 1%, b: 4%, d: 14%, a: 71%)

(P) COc1ccc(CC(=O)Nc2ccsc2-c2nc(N)n[nH]2)cc1
(Q) Cc1nc(-c2sccc2NC(=O)Cc2cccc3ccccc23)n(C)n1
(R) COc1ccc(CC(=O)Nc2ccsc2-c2cn(C)cn2)cc1
Put these in order: smallest remaining at 0.5 h first, largest last. # list labels per requested ordering
Q, R, P
(Q: 1%, R: 49%, P: 87%)

(1) O=C(Cc1cccc2ccccc12)Nc1ccsc1-c1ncn[nH]1
(2) O=C(Cc1cccc2cnccc12)Nc1ccsc1-c1cscn1
Select one: 1 or 2 . Criterion: greater recorded remaining at 0.5 h. Answer = label.
1
(1: 11%, 2: 4%)

(a) COc1ccc(CC(=O)Nc2ccsc2-c2cnccn2)cc1
(b) O=C(Cc1cccc2cnccc12)Nc1scnc1-c1cnccn1
(c) O=C(Cc1cccc2ncccc12)Nc1ccsc1-c1nnc[nH]1
(d) O=C(Cc1cccc2ccccc12)Nc1ccsc1-c1cc[nH]n1
(e) O=C(Cc1cccc2ccccc12)Nc1ccsc1-n1ccnc1
Kindly order the items shown according to remaining at 0.5 h, from the highest value down. Please list each label once, in the requested order.
c, e, d, b, a
(c: 67%, e: 17%, d: 5%, b: 2%, a: 0%)
